test system: Plasmodium berghei; experiment: Screen against P. berghei liver stage (PbLuc), transformed with Luciferase, at 10uM; assay type: functional, HepG2; details: tested at 10 uM
Screen size: about 69,000 compounds; about 8,600 (12%) showed an effect of 50% or more. For the sample, strong results were picked, then their nearest neighbours and some compounds at random.
Cut-off 20% on INHIBITION: below means Y, at or above means N.

Does the reported INHIBITION of the following molecule sit strictly below 20%? Cc1cc(CC(C)Nc2nc(C3CCCC3)nc3c2cnn3C)[nH]n1 (stereo not given)
N

Is the reported INHIBITION for CCOc1ccc(C(F)(F)F)cc1NC(=O)N1CCC(C(N)=O)CC1 strictly below 20%?
Y

# check: INHIBITION < 20% for CC(C)C[C@H](Nc1nc(C2CCCC2)nc2c1cnn2C)C(N)=O
N

Confirm or reject: INHIBITION of CCC(Nc1nccc(C2CCCC2)n1)c1ccccn1 (stereo not given) lies strictly below 20%
N

Is INHIBITION strictly under 20% for the entry COC(=O)c1ccc2c(-c3ccnc(N[C@@H](C)CO)n3)c[nH]c2c1 ?
Y

Field: below-cutoff. Rule: recorded INHIBITION strictly less than 20%. Subject: CCOc1ccc(OCC)c(NCc2cc(C)on2)c1
N

INHIBITION under 20%? Item: CCNC(=O)NC(=O)CNc1cc(C#N)ccc1OCC
Y

# check: INHIBITION < 20% for CCOc1ccc(C#N)cc1NCC(=O)NC(=O)NC
Y

Does the reported INHIBITION of the following molecule sit strictly below 20%? Cc1nnsc1-c1nnc2sc(C(C)C)nn12
Y

Dear reviewer, please state whether CC(=O)NCCNc1nc(C2CCCC2)nc2c1cnn2C has INHIBITION strictly beneath 20%.
Y

State whether 20% exceeds INHIBITION recorded for CC1(C)CN=C(N2CCN(CC3CCCCO3)CC2)S1 (stereo not given) .
N

Please state whether INHIBITION is below 20% for COC(=O)[C@@H](Nc1nc(C2CCCC2)nc2c1cnn2C)[C@@H](C)O
Y

Dear reviewer, please state whether COC(=O)c1ccc2c(-c3ccnc(NCCO)n3)c[nH]c2c1 has INHIBITION strictly beneath 20%.
Y

Hello, I'm reviewing records and need to know if INHIBITION of Cc1nc(C)c2c(n1)CCN(Cc1nccn1C)CC2 is below 20%. Could you check?
N

Is INHIBITION strictly under 20% for the entry CC(C)[C@H](Nc1nc(C2CCCC2)nc2c1cnn2C)C(N)=O ?
N

Say whether its INHIBITION is strictly beneath 20%. Entry: CCOc1ccc(C(F)(F)F)cc1NC(=O)NCc1noc(C)n1
Y

Does the reported INHIBITION of CCOC(=O)CNc1nc(COC)nc2c1cnn2C stay below 20%?
Y

I wonder whether O=C(C1CCC1)N1CCC(c2ncc3c(n2)CCNC3)CC1 has INHIBITION below 20%. Can you tell?
Y

Is INHIBITION strictly under 20% for the entry CCCNC(=O)CNc1cc(C#N)ccc1OCC ?
N

Decide: INHIBITION of COC(=O)[C@H](CSC)Nc1nc(C2CCCC2)nc2c1cnn2C strictly below 20%?
N

Determine if CCOc1c(Cl)cccc1NCc1cc(C)on1 shows INHIBITION strictly lower than 20%.
Y

Please let me know if CCOc1ccc(C#N)cc1NCC(=O)OC shows INHIBITION below 20%.
Y

Find out if reported INHIBITION for OCCn1nccc1C1CCN(Cc2nc(C3CC3)no2)CC1 is less than 20%
N

Does the reported INHIBITION of Cc1sc2c(C3CCCN(C(C)C)C3)nc(C)n2c1C (stereo not given) stay below 20%?
Y

A record lists COCCN1CC(Nc2nc(C3CCCC3)nc3c2cnn3C)CC1=O (stereo not given) . Is its INHIBITION below 20%?
N
